This collection of values is drawn from patent US20250388534A1.

# System: chick embryo chorioallantoic membrane (CAM)
# Protocol notes: Eye irritation/corrosion chick embryo chorioallantoic membrane assay (irritation score IS)
# Cond: reaction time method; single chick embryos 1-6
Measurement name: Bleeding severity score (s)
One number for each entry, in s.

Request: What value of measured Bleeding severity score is listed for O=C(O)C(O)c1ccccc1 (stereo not shown) [mandelic acid, a-hydroxyphenylacetic acid] ?
Result: 301
